Hi! I'm sharing some pIC50 results obtained with Genome polyprotein (Norovirus Hu/GII.P4_GII.4/Minerva/2006/USA, UniProt A0A0K2E2J2).
Sequence (A0A0K2E2J2 whole entry): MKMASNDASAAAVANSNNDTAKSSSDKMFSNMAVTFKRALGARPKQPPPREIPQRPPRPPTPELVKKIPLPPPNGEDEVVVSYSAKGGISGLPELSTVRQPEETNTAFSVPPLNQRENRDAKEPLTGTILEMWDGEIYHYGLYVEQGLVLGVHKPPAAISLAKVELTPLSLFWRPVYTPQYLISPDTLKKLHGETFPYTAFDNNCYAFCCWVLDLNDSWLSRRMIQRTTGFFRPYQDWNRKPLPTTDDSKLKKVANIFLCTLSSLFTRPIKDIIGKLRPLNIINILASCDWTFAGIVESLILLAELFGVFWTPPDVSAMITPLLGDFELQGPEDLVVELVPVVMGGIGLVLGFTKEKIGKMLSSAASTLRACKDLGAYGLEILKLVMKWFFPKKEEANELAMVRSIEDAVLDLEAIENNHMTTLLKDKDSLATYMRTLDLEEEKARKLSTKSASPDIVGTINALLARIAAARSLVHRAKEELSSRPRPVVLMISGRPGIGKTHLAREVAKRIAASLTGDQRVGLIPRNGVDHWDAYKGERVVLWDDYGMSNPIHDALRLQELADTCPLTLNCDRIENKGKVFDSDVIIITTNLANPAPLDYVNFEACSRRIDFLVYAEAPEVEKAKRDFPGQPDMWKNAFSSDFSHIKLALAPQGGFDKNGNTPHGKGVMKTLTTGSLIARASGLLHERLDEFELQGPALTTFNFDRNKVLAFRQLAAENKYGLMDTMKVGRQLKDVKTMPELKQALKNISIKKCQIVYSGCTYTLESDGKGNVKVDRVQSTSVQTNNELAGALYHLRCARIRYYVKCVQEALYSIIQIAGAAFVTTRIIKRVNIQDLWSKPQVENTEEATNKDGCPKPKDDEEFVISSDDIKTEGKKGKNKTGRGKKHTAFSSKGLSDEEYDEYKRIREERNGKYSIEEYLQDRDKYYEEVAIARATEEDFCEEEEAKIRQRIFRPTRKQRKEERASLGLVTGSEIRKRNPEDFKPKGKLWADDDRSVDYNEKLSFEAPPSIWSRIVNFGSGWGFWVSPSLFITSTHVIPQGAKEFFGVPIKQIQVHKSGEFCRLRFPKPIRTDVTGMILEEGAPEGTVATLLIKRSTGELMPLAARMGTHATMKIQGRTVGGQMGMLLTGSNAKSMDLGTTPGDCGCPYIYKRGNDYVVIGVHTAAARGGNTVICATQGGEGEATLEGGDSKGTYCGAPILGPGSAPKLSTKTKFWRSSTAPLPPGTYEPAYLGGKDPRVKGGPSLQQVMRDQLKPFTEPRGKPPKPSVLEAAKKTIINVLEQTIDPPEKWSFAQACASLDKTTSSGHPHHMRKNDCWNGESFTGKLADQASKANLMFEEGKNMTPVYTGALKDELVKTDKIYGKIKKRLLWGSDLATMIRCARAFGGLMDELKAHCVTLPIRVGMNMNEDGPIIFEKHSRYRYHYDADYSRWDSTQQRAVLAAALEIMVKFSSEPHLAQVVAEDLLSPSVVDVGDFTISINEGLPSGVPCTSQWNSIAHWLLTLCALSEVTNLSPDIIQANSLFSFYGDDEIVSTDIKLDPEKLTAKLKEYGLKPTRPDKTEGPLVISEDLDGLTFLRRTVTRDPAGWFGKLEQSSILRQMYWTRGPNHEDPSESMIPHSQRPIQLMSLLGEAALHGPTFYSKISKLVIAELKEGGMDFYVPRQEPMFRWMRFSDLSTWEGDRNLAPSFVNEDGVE
Note: pIC50 values are expressed as the negative base-10 logarithm of concentration in M.

Output measured pIC50 for this item: O=C[C@H](C[C@@H]1CCCNC1=O)NC(=O)[C@H](Cc1ccccc1)NC(=O)[C@H](Cc1cccc2ccccc12)NC(=O)OCc1ccccc1
6.32

Output measured pIC50 for this item: CCOC(=O)/C=C/[C@H](C[C@@H]1CCNC1=O)NC(=O)[C@@H](CC(=O)[C@@H](NC(=O)c1cc(C)on1)C(C)C)Cc1ccc(F)cc1
4.63

Output measured pIC50 for this item: CC(C)C[C@H](NC(=O)[C@H](Cc1cccc2ccccc12)NC(=O)c1cnccn1)C(=O)N[C@H](C=O)C[C@@H]1CCCNC1=O
6.69

Output measured pIC50 for this item: CC(C)C[C@H](NC(=O)[C@H](Cc1ccc(F)cc1)NC(=O)OCc1ccccc1)C(=O)N[C@H](C=O)C[C@@H]1CCCNC1=O
6.78
